B1: library; a variant is named by its letters at N, in order (parent)
chain: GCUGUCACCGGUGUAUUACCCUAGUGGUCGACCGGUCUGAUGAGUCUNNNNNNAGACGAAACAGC

# Variants of: B1
# experimental_protocol: normalized RNA/DNA level with ligand (relative to sTRSVctl = 100) (log10 (% of sTRSVctl)); ligand: hypoxanthine (xanthine aptamer); higher = less ribozyme self-cleavage, higher mRNA level
# condition_notes: ligand concentration (+) RNA-Seq: 5 mM, HEK293T, reporter: mCherry (pCS4076), ligand present: yes
reported_endpoint: normalized RNA/DNA level with ligand (log10)
Output: the number by itself.

Tell me measured normalized RNA/DNA level with ligand (log10) for `ACUUAA` please. 1.93

Supply measured normalized RNA/DNA level with ligand (log10) of `GUUUUU` in your reply. 1.94

Please report the measured normalized RNA/DNA level with ligand (log10) for `CGCUUU` 1.91

Indicate its recorded normalized RNA/DNA level with ligand (log10); the variant in question is `CACGGG` 1.84

Specify normalized RNA/DNA level with ligand (log10) for `CCAAAU` and stop. 1.93

Give the reported normalized RNA/DNA level with ligand (log10) for this variant. `AUGGAU` 1.91

Please supply the value of reported normalized RNA/DNA level with ligand (log10) for the item `UUUUCG` 1.92

# return recorded normalized RNA/DNA level with ligand (log10) for input `GUAAGU` 1.94

Output measured normalized RNA/DNA level with ligand (log10) for this item: `CGGCGU` 1.93

# return recorded normalized RNA/DNA level with ligand (log10) for input `AUAACU` 1.93

Report measured normalized RNA/DNA level with ligand (log10); entry is `AAGCAU` 1.88

Find the measured normalized RNA/DNA level with ligand (log10) of `CGAGGU` and report it. 1.96

Supply normalized RNA/DNA level with ligand (log10) value. Item: `UGCAUU` 1.98

Assign normalized RNA/DNA level with ligand (log10) to the following record: `UUCGAA` 1.94

Please give the documented normalized RNA/DNA level with ligand (log10) of `GGCAUG` 1.88

Supply normalized RNA/DNA level with ligand (log10) value. Item: `AAAACA` 1.9

Read the entry `AUGCUC` and write its reported normalized RNA/DNA level with ligand (log10). 2.01

Quote normalized RNA/DNA level with ligand (log10) reported for `CCGCAC` please. 1.96

Give a short answer stating reported normalized RNA/DNA level with ligand (log10) for `AUAUGG` . 1.8

Give me measured normalized RNA/DNA level with ligand (log10), please, for this variant: `AUGAAG` 1.73

Identify normalized RNA/DNA level with ligand (log10) associated with the variant `ACGAUC` 1.96

Find the measured normalized RNA/DNA level with ligand (log10) of `AUUCUA` and report it. 1.92

Indicate the recorded normalized RNA/DNA level with ligand (log10) value for this variant: `AAGCCC` 1.97

Please look at this variant and report its normalized RNA/DNA level with ligand (log10): `CGUAGA` 1.96

Please look at this variant and report its normalized RNA/DNA level with ligand (log10): `GCCAUA` 1.95

# return recorded normalized RNA/DNA level with ligand (log10) for entry `CUGACA` 1.89

Report normalized RNA/DNA level with ligand (log10) for `GAAGUC` 1.97

Determine from records and report normalized RNA/DNA level with ligand (log10) for `GCGGAA` 1.88

// fetch normalized RNA/DNA level with ligand (log10) given entry `AUUGGG` 1.87

Supply measured normalized RNA/DNA level with ligand (log10) of `AUAACG` in your reply. 1.87

State its normalized RNA/DNA level with ligand (log10): `CCCGGC` 2

In one line, give reported normalized RNA/DNA level with ligand (log10) of the entry `AAGCGU` . 1.89

Report measured normalized RNA/DNA level with ligand (log10); entry is `ACAUAU` 1.89

Consider the variant `GAUCCU` and give its recorded normalized RNA/DNA level with ligand (log10). 1.98

Give reported normalized RNA/DNA level with ligand (log10) value for `AGUGGU` 1.9

Note down normalized RNA/DNA level with ligand (log10) recorded for `AUAUGA` 1.92

Report normalized RNA/DNA level with ligand (log10) for `GCCGGG` 1.94

Identify normalized RNA/DNA level with ligand (log10) associated with the variant `UGUUUG` 2.04

Recall and state the measured normalized RNA/DNA level with ligand (log10) for `UCUUGC` . 1.98

Report normalized RNA/DNA level with ligand (log10), nothing else, for this variant: `AGCCUU` 1.97

Origin of the recorded values: the supplement of paper PMC6757056
